- TARGET: aryl hydrocarbon receptor (AhR) (Mus musculus (Mouse), UniProt P30561)
- Sequence (P30561 10-805): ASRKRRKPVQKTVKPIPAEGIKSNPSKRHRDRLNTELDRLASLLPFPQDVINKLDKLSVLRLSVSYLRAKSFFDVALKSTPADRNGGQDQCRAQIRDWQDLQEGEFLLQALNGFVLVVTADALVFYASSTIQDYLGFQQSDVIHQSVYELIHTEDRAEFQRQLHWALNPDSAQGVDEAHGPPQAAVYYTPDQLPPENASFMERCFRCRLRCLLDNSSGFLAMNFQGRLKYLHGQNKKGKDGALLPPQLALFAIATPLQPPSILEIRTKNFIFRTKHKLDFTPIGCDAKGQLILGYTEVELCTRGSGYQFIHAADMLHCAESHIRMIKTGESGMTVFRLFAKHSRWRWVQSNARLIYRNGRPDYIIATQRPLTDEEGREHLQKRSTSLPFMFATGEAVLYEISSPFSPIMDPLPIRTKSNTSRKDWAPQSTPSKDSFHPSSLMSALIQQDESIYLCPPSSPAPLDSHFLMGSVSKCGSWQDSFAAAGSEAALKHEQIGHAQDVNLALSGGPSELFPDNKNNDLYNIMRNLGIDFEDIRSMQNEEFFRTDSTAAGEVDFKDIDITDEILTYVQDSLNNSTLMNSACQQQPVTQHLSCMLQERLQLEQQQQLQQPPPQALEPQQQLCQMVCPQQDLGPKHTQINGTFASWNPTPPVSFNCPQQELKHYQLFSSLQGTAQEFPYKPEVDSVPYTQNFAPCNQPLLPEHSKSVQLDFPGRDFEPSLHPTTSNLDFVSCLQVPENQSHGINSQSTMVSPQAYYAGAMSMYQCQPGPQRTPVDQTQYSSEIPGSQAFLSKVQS
- Sequence (P53762 whole entry partner): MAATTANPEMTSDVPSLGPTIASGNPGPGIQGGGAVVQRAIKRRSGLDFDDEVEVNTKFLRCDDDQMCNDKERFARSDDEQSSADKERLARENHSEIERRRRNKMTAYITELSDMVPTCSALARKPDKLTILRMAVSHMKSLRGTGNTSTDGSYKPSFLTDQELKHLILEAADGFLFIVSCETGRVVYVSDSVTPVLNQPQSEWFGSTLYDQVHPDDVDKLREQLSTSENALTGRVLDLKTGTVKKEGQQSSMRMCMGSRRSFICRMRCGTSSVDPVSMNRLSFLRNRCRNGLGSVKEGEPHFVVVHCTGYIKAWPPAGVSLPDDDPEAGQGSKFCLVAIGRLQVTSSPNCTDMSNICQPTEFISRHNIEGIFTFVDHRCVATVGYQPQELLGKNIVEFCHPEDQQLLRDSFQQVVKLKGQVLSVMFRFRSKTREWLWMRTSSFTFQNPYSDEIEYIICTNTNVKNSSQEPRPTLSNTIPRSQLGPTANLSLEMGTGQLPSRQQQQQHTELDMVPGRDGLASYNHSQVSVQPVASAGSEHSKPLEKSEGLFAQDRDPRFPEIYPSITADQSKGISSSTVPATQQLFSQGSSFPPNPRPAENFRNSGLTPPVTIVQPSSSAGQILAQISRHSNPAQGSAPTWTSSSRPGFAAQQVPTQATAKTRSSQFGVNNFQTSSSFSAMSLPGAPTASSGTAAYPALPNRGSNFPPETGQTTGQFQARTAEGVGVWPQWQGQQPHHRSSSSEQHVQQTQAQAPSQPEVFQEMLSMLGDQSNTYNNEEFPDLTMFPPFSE
- RUN_DESCRIPTION: AhR ligand screening: AhRE-luciferase reporter in transfected Hepa1 cells
- Format: cell-based
- PROTOCOL_CONDITIONS: fold change of luciferase expression at 100 nM test compound relative to vehicle (0.1% DMSO)
Kindly supply the reported Fold @ 100 nM values for the records listed here.
Numbers only, in fold.

Example results:
>  <TEST_SMILES>
O=C(c1ccc(F)c(F)c1)n1c(-c2cccc(C(F)(F)F)c2Cl)nc2cc(Cl)ccc21

>  <TARGET>
aryl hydrocarbon receptor (AhR) (Mus musculus (Mouse), UniProt P30561)

>  <Fold @ 100 nM, fold>
3

$$$$
>  <TEST_SMILES>
O=C(c1ccccc1)n1c(-c2cc3ccccc3o2)nc2ccc(Cl)cc21

>  <TARGET>
aryl hydrocarbon receptor (AhR) (Mus musculus (Mouse), UniProt P30561)

>  <Fold @ 100 nM, fold>
5

$$$$
>  <TEST_SMILES>
Cc1ccc(S(=O)(=O)n2c(-c3cccc4ccccc34)nc3ccc(Cl)cc32)cc1

>  <TARGET>
aryl hydrocarbon receptor (AhR) (Mus musculus (Mouse), UniProt P30561)

>  <Fold @ 100 nM, fold>
19

$$$$
>  <TEST_SMILES>
O=S(=O)(c1ccc(C(F)(F)F)cc1)n1c(-c2cccc3ccccc23)nc2cc(Cl)ccc21

>  <TARGET>
aryl hydrocarbon receptor (AhR) (Mus musculus (Mouse), UniProt P30561)

>  <Fold @ 100 nM, fold>
20

$$$$
>  <TEST_SMILES>
COc1ccc(-c2nc3cc(Cl)ccc3n2C(=O)c2ccc(F)c(F)c2)c2ccccc12

>  <TARGET>
aryl hydrocarbon receptor (AhR) (Mus musculus (Mouse), UniProt P30561)

>  <Fold @ 100 nM, fold>
1

$$$$

Items follow; give Fold @ 100 nM for each.
1. COc1ccc(-c2nc3cc(Cl)ccc3n2C(=O)c2ccccc2)cc1
2. COC(=O)c1ccc2nc(-c3cccc4ccccc34)n(S(=O)(=O)c3ccc4ccccc4c3)c2c1
3. COc1ccc(Cn2c(-c3cccc4ccccc34)nc3cc(Cl)ccc32)cc1

1. 1
2. 2
3. 1

====

- RUN_DESCRIPTION: Liver microsomal stability, human
- PROTOCOL_CONDITIONS: human, liver microsomes, pH 7.4
ENDPOINT_LABEL: half-life at 1 μM

Example results:
>  <TEST_SMILES>
CN(C)c1ccc(C(=O)c2c[nH]c3ccc(Cl)cc23)cc1

>  <half-life at 1 μM>
42.4 min

$$$$
>  <TEST_SMILES>
Clc1ccc2[nH]c(-c3cccc4ccccc34)cc2c1

>  <half-life at 1 μM>
14.1 min

$$$$
>  <TEST_SMILES>
O=C(c1ccccc1)c1c[nH]c2ccc(Cl)cc12

>  <half-life at 1 μM>
15.3 min

$$$$
>  <TEST_SMILES>
O=C(C1CC1)n1c(-c2cccc3ccccc23)nc2ccc(Cl)cc21

>  <half-life at 1 μM>
36.3 min

$$$$
>  <TEST_SMILES>
O=C(c1ccc(Cl)cc1Cl)c1c[nH]c2ccc(Cl)cc12

>  <half-life at 1 μM>
35.2 min

$$$$

Items follow; give half-life at 1 μM for each.
1. O=C(C1CC1)n1c(-c2cccc3ccccc23)cc2cc(Cl)ccc21
2. O=C(c1cccc(Cl)c1Cl)c1c[nH]c2ccc(Cl)cc12
3. COc1ccc(C(=O)c2c[nH]c3ccc(Cl)cc23)cc1
4. O=S(=O)(c1ccc2ccccc2c1)n1c(-c2cccc3ccccc23)nc2cc(Cl)ccc21

1: 74.9 min; 2: 22.6 min; 3: 45.3 min; 4: 33.9 min

====

Kindly supply the reported IC50 values for the records listed here.
- TARGET: CYP-2C19 (Homo sapiens (Human), UniProt P33261)
- Sequence (P33261 whole entry): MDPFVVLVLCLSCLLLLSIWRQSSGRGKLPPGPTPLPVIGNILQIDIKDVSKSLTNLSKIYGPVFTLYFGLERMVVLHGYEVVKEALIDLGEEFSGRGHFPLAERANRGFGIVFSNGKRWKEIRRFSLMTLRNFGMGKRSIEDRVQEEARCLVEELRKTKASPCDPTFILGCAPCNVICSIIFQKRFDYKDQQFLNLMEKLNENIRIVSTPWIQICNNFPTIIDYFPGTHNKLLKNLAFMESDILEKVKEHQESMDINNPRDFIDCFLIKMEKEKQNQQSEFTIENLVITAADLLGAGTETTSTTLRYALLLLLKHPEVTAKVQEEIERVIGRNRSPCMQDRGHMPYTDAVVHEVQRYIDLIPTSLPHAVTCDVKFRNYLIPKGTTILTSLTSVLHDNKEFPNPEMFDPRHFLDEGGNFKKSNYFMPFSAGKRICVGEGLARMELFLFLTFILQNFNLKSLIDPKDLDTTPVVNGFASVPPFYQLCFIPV
- RUN_DESCRIPTION: CYP panel profile: P450 inhibition, CYP-2C19
- Format: in vitro ADME
- PROTOCOL_CONDITIONS: human liver microsomes
Don't forget the unit after the value.

Example results:
>  <MOLECULE>
COC(=O)c1ccc2c(c1)nc(-c1cccc3ccccc13)n2C(=O)c1ccc(F)c(F)c1 [Compound 848]

>  <IC50>
1.1 µM

$$$$
>  <MOLECULE>
Clc1ccc2[nH]c(-c3cccc4ccccc34)cc2c1 [Compound 893, 5-chloro-2-(naphthalen-1-yl)-1H-indole]

>  <IC50>
2.9 µM

$$$$
>  <MOLECULE>
O=C(c1ccccc1)n1c(-c2cccc3ccccc23)nc2cc(Cl)c(Cl)cc21 [Compound 693]

>  <IC50>
24.1 µM

$$$$

// switching to the query molecule
Returns the measured IC50 for the input molecule. Input: O=C(c1ccc(F)c(F)c1)n1c(-c2cccc3ccccc23)nc2cc(Cl)ccc21 [Compound 529]
3.6 µM

====

- TARGET: aryl hydrocarbon receptor (AhR) (Mus musculus (Mouse))
- RUN_DESCRIPTION: AhR ligand screening: AhRE-luciferase reporter in transfected Hepa1 cells
- Format: cell-based
- PROTOCOL_CONDITIONS: luciferase expression at 100 nM test compound relative to 100 nM benchmark compound 11-cl-BBQ
Friendly reminder: Fold relative to benchmark @ 100 nM below 0.07 fold is Fulfilled, at or above is Not fulfilled.

>  <MOLECULE>
COc1ccc(C(=O)n2c(-c3cc4ccccc4s3)nc3ccc(F)cc32)cc1 [Compound 635]

>  <ANSWER_LABEL>
Not fulfilled

$$$$
>  <MOLECULE>
CN(C)c1ccc(C(=O)n2c(-c3cccc4ccccc34)nc3cc(Cl)ccc32)cc1 [Compound 685]

>  <ANSWER_LABEL>
Not fulfilled

$$$$
>  <MOLECULE>
Clc1ccc2c(c1)nc(-c1cccc3ccccc13)n2Cc1ccccc1 [Compound 533]

>  <ANSWER_LABEL>
Fulfilled

$$$$
>  <MOLECULE>
Clc1ccc2c(c1)nc1n2Cc2cccc3cccc-1c23 [Compound 435]

>  <ANSWER_LABEL>
Not fulfilled

$$$$
>  <MOLECULE>
O=C(c1ccc2nc(-c3cccc4ccccc34)n(S(=O)(=O)c3ccc4ccccc4c3)c2c1)N1CCOCC1 [Compound 1389]

>  <ANSWER_LABEL>
Fulfilled

$$$$
>  <MOLECULE>
COC(=O)c1ccc2c(c1)nc(-c1cccc3ccccc13)n2Cc1ccc(Cl)cc1 [Compound 1406]

>  <ANSWER_LABEL>
Fulfilled

$$$$
>  <MOLECULE>
O=C(c1ccc2nc(-c3cccc4ccccc34)n(S(=O)(=O)c3ccc(Cl)cc3)c2c1)N1CCOCC1 [Compound 1359]

>  <ANSWER_LABEL>
Fulfilled

$$$$
>  <MOLECULE>
O=C(c1ccc(F)c(F)c1)n1c(-c2ccc(Cl)c3ccccc23)nc2ccc(Cl)cc21 [Compound 870]

>  <ANSWER_LABEL>
Not fulfilled

$$$$
>  <MOLECULE>
Fc1ccc(Cn2c(-c3cccc4ccccc34)nc3ccc(Cl)cc32)cc1F [Compound 888]

>  <ANSWER_LABEL>
Fulfilled

$$$$
>  <MOLECULE>
Fc1ccc(Cn2c(-c3cccc4ccccc34)nc3cc(Cl)ccc32)cc1F [Compound 887]

>  <ANSWER_LABEL>
Fulfilled

$$$$

Quick check: Fold relative to benchmark @ 100 nM of O=C(c1ccc2nc(-c3cccc4ccccc34)n(S(=O)(=O)c3cccc(F)c3)c2c1)N1CCOCC1 [Compound 1357] under 0.07 fold?
Fulfilled

What about this molecule? O=C(c1ccccc1)n1c(-c2ccc3ccccc3c2)nc2cc(F)ccc21 [Compound 584]
Not fulfilled

What about this molecule? O=C(c1ccc(F)c(F)c1)n1c(-c2ccc(-c3ccccc3)cc2)nc2cc(Cl)ccc21 [Compound 643]
Not fulfilled

====

- RUN_DESCRIPTION: In vivo PK study, intravenous and oral administration in male mice
- Design: species or system mouse
- PROTOCOL_CONDITIONS: mouse, PO 8 mg/Kg vs IV 2 mg/Kg, plasma
Kindly supply the reported bioavailability values for the records listed here.
Don't forget the unit after the value.

>  <COMPOUND>
Clc1ccc2[nH]c(-c3cccc4ccccc34)cc2c1 [Compound 893, 5-chloro-2-(naphthalen-1-yl)-1H-indole]

>  <RESULT>
73.5%

$$$$

Returns the measured bioavailability for the input compound. Input: O=c1c2cccc3cccc(c32)c2nc3cc(Cl)ccc3n12 [Compound 362]
56.2%

====

- TARGET: aryl hydrocarbon receptor (AhR) (Mus musculus (Mouse), UniProt P30561)
- RUN_DESCRIPTION: AhR ligand screening: AhRE-luciferase reporter in transfected Hepa1 cells
- Format: cell-based
- PROTOCOL_CONDITIONS: fold change of luciferase expression at 1 nM test compound relative to vehicle (0.1% DMSO)
Kindly supply the reported Fold @ 1 nM values for the records listed here.
Don't forget the unit after the value.

Example results:
>  <COMPOUND>
O=C(c1ccccc1)c1c[nH]c2ccc(Cl)cc12

>  <TARGET>
aryl hydrocarbon receptor (AhR) (Mus musculus (Mouse), UniProt P30561)

>  <Fold @ 1 nM>
1 fold

$$$$
>  <COMPOUND>
O=C(c1ccc2c(c1)nc(-c1cccc3ccccc13)n2S(=O)(=O)c1cccc(F)c1)N1CCCCC1

>  <TARGET>
aryl hydrocarbon receptor (AhR) (Mus musculus (Mouse), UniProt P30561)

>  <Fold @ 1 nM>
1 fold

$$$$
>  <COMPOUND>
O=C(c1ccccc1)n1c(-c2cccc3ccccc23)nc2cc(Br)ccc21

>  <TARGET>
aryl hydrocarbon receptor (AhR) (Mus musculus (Mouse), UniProt P30561)

>  <Fold @ 1 nM>
2 fold

$$$$

Items follow; give Fold @ 1 nM for each.
1. O=C(c1ccc(F)c(F)c1)n1c(-c2cccc3ccccc23)nc2cc(Cl)ccc21 [Compound 530]
2. O=C(c1ccc2c(c1)nc(-c1cccc3ccccc13)n2Cc1ccc(SC(F)(F)F)cc1)N1CCCCC1
3. CN1CCN(C(=O)c2ccc3c(c2)nc(-c2cccc4ccccc24)n3Cc2ccc(F)c(F)c2)CC1
4. O=C(c1ccc(F)c(F)c1)n1c(-c2c3ccccc3cc3ccccc23)nc2ccc(Cl)cc21
5. COc1ccc(C(=O)n2c(-c3cc4ccccc4s3)nc3cc(F)ccc32)cc1

1. 2 fold
2. 1 fold
3. 1 fold
4. 1 fold
5. 1 fold
